From: ChEMBL document CHEMBL1201862

System: NCI-H460
Experiment: NCI tumour cell line growth inhibition, 48 h
Activity calls are given as the source filed them. Rule as the data show it: active = GI50 up to about 1.1 µM and inactive = higher.
Experimental readout: GI50

# Compound, Test system, GI50
measured = [
    ("COC(=O)[C@@H]1CCCCC[C@H]2C(CO)=C(C)C(=O)C12 (stereo partly specified)", "NCI-H460", "> 100 µM (inactive)"),
    ("O=C(O)Cc1cccnc1", "NCI-H460", "> 100 µM (inactive)"),
    ("N#CCC(=O)N/N=C(/C(=O)Nc1ccccc1)C1C(=O)N(c2ccccc2)N=C1N (stereo unspecified)", "NCI-H460", "> 100 µM (inactive)"),
    ("CN(/N=C\\c1ccnc2ccccc12)c1ccccc1", "NCI-H460", "23.7 µM (inactive)"),
    ("COc1ccc(NCC(=O)Nn2c(-c3ccccc3)nc3ccccc3c2=O)cc1", "NCI-H460", "51.1 µM (inactive)"),
]

// below: GI50 requested for another compound
// query Report GI50 from NCI-H460 testing of `CSc1nnc(COc2ccc(Cl)cc2)o1`
// result > 100 µM (inactive)

---

System: SNB-75
Assay: NCI tumour cell line growth inhibition, 48 h
Activity calls are given as the source filed them. Rule as the data show it: active = GI50 up to about 1.1 µM and inactive = higher.
Experimental readout: GI50

# Compound, GI50
measured = [
    ("C(=N\\c1ccc(-c2nc3ccccc3s2)cc1)/c1ccco1", "85.5 µM (inactive)"),
]

// query Retrieve GI50 measured for `N=C(CC(=O)Nc1ccccn1)c1ccccc1` and print it.
// result > 100 µM (inactive)

// query Retrieve GI50 measured for N#CC1(C#N)C2C=CC(C3CCC=C32)C1(C#N)C#N (stereo not drawn) and print it.
// result > 10 µM (inactive)

// query Retrieve GI50 measured for NC(CCCCNC(=O)CNC(=O)OCc1ccccc1)C(=O)NC(CCCCNC(=O)CNC(=O)OCc1ccccc1)C(=O)NC(CCCCNC(=O)CNC(=O)OCc1ccccc1)C(=O)NC(CCCCNC(=O)CNC(=O)OCc1ccccc1)C(=O)NC(CCCCNC(=O)CNC(=O)OCc1ccccc1)C(=O)NC(CCCCNC(=O)CNC(=O)OCc1ccccc1)C(=O)O (stereo not drawn) and print it.
// result > 75 µM (inactive)

// query Retrieve GI50 measured for `O=C(c1cccs1)N(C(=S)OC12CC3CC(CC(C3)C1)C2)c1ccccc1` and print it.
// result 85.7 µM (inactive)

// query Retrieve GI50 measured for `C/C(=N/O)c1ccc2c(c1)/C(=N/O)c1cc(/C(C)=N/O)ccc1-2` and print it.
// result 17.9 µM (inactive)

// query Retrieve GI50 measured for C=C1C(=O)O[C@@H]2C[C@@H](C)[C@@H]3[C@@H](OC4OC(COC(C)=O)C(O)C(O)C4O)CC(=O)[C@@]3(C)C[C@H]12 (stereo partly drawn) and print it.
// result 7.31 µM (inactive)

// query Retrieve GI50 measured for CC(=O)O[C@@H]1C2C(=O)OC(=O)C2C2CCC[C@]23O[C@H]13 (stereo partly drawn) and print it.
// result > 100 µM (inactive)

---

System: Malme-3M
Experiment: NCI tumour cell line growth inhibition, 48 h
Active and inactive are the calls of the source. No stated cut-off is given here; in the data, active = GI50 up to about 1.1 µM and inactive = higher.
Valid outcomes are listed here; reply with one: active, inactive

Worked set:
# Compound, Label value
rows = [
    ("CN(CCN(C)C(=O)CCn1cc(F)c(=O)[nH]c1=O)C(=O)CCn1cc(F)c(=O)[nH]c1=O", "inactive"),
    ("Cc1c2ccncc2cc2c1[nH]c1ccccc12", "inactive"),
    ("CCN1c2ccccc2C(C(SC)S(=O)(=O)c2ccc(C)cc2)c2c1[nH]c(=O)n(C)c2=O (stereo not given)", "inactive"),
    ("COC1/C=C/C(C)C(C(C)C(OC)C(C)CCC(=O)C(C)C(C/C=C/N(C)C=O)OC)OC(=O)/C=C/C=C(\\C)CC(OC)CC2=CC(=O)O[C@H](C2)C(C)C(OC)CC(OC)/C=C/C(C)C(OC)C1 (stereo not given in full)", "active"),
]

Next, consider the following compound.
// query Tell me the assay call for `CN(/N=C\c1ccnc2ccccc12)c1ccccc1` please.
// result inactive
